Entries and their MIC values follow.
Tested on: Escherichia coli (ATTC 25922)
Experiment: microbe, parasite or virus in culture
Assay type: cell-based
Details: Escherichia coli, Example 2; values separated by / are repeat tests; read-out: Antimicrobial potency (MIC) E. coli
// note: answer is a bare numeric in µg/mL

[in] GET /values?readout=MIC&item= CN1CCN(C(=O)C(CN)(Cc2ccc(C(C)(C)C)cc2)Cc2ccc(C(C)(C)C)cc2)CC1
[out] 10

###

Tested on: methicillin resistant Staphylococcus epidermidis (ATCC 27626)
Assay: microbe, parasite or virus in culture
Assay type: cell-based
Conditions: ATCC 27626
Threshold 50 µM. MBC MRSE below it: Met. MBC MRSE at it or above: Not met.

Completed entries (count: 5):
Smiles Record	Assigned Label
Cc1ccc(CC(CN)(Cc2ccc(C)cc2)C(=O)N[C@@H](CCCNC(=N)N)C(N)=O)cc1	Not met
CN(C)CCN1CCN(C(=O)C(CN)(Cc2ccc(C(C)(C)C)cc2)Cc2ccc(C(C)(C)C)cc2)CC1	Not met
CN(C)CCN1CCN(C(=O)C(CN)(Cc2ccc(C(F)(F)F)cc2)Cc2ccc(C(F)(F)F)cc2)CC1	Not met
CN(C)CCN1CCN(C(=O)C(CN)(Cc2ccc3ccccc3c2)Cc2ccc3ccccc3c2)CC1	Met
COc1cc(CC(CN)(Cc2cc(OC)cc(OC)c2)C(=O)N[C@@H](CCCNC(=N)N)C(N)=O)cc(OC)c1	Not met

Query compound follows.
[in] Hello, is MBC MRSE of the following compound strictly smaller than 50 µM? N=C(N)NCCC[C@H](NC(=O)C(CN)(Cc1ccc(C(F)(F)F)cc1)Cc1ccc(C(F)(F)F)cc1)C(N)=O
[out] Met

###

Test system: Staphylococcus aureus (ATTC 25923)
Test: microbe, parasite or virus in culture
Format: cell-based
Conditions: ATTC 25923; read-out: MIC S. aureus
Examples of compounds with documented log10 of MIC follow.
Each number you see is log10 of MIC, and the unit inside the log is µM.

// worked examples, log10 of MIC included
Compound	log10 of MIC
N=C(N)NCCC[C@H](NC(=O)C(CN)(Cc1ccc2ccccc2c1)Cc1ccc2ccccc2c1)C(N)=O [Compound 4g]	0.82
COc1cc(CC(CN)(Cc2cc(OC)cc(OC)c2)C(=O)N[C@@H](CCCNC(=N)N)C(N)=O)cc(OC)c1 [Compound 4m]	2.41

[in] Item CC(C)(C)c1cc(CC(CN)(Cc2cc(C(C)(C)C)cc(C(C)(C)C)c2)C(=O)N[C@@H](CCCNC(=N)N)C(N)=O)cc(C(C)(C)C)c1 [Compound 4n] has what recorded log10 of MIC?
[out] 0.46

[in] Could you tell me which log10 of MIC is on file for N=C(N)NCCC[C@H](NC(=O)C(CN)(Cc1ccc(C(F)(F)F)cc1)Cc1ccc(C(F)(F)F)cc1)C(N)=O [Compound 4i] ?
[out] 1.10

[in] log10 of MIC for CN(C)CCN1CCN(C(=O)C(CN)(CCCc2ccccc2)CCCc2ccccc2)CC1 [Compound 4a] ?
[out] 2.46

[in] Quick one: log10 of MIC for Cc1ccc(CC(CN)(Cc2ccc(C)cc2)C(=O)N[C@@H](CCCNC(=N)N)C(N)=O)cc1 [Compound 4h] ?
[out] 2.17

[in] Need log10 of MIC of CC(C)c1ccc(CC(CN)(Cc2ccc(C(C)C)cc2)C(=O)N[C@@H](CCCNC(=N)N)C(N)=O)cc1 [Compound 4j] , thanks.
[out] 1.01
